Target: KLHDC2 SBD (Homo sapiens, UniProt Q9Y2U9)
Sequence (Q9Y2U9 15-361): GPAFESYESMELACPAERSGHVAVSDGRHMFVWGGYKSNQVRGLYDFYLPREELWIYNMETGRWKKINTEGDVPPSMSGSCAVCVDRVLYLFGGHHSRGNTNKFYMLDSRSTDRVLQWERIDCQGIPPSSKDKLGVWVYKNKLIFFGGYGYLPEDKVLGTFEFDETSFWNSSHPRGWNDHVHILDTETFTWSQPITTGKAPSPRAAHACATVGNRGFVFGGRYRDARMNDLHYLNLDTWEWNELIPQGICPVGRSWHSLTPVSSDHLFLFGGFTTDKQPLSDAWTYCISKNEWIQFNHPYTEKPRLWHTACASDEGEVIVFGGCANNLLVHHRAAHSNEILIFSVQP
Experiment: SPR binding to immobilised KLHDC2 SBD
Conditions: 10xHis-KLHDC2 SBD, pH 7.4, 20°C, triplicate, 1-site model, substrates (Figure S1C)
pKd: −log10 of the molar value. No end group written: not given here.
propertyMeasured: pKd

{"columns": ["substance", "recordedResult"],
 "data": [
  ["GFP-RIC8B: C-terminal 23 amino-acids of RIC8B appended to the C-terminus of GFP ({GFP}-TITPLEEALNQYSVIEETSSDTD)", 6.34]
]}

Cited source: paper PMC10080726
